assay: Tissue distribution of radioactivity in rats after intravenous administration; assay type: in vivo; details: rat, thyroid, iv, 5 d, read-out: Distribution of radioactivity, Thyroid
assay.metric: tissue uptake at 120 h (%ID/g)
Kindly answer with a numeric value in %ID/g, unit omitted.

Q: // lookup tissue uptake at 120 h for `O=C(O)CCCC[Te]CCCCCCCCCc1ccc([125I])cc1`
Result: 30.2

* * *

assay: Tissue distribution of radioactivity in rats after intravenous administration; format: in vivo; conditions: rat, heart, iv, 6 h, read-out: Distribution of radioactivity, Heart
assay.metric: tissue uptake at 6 h (%ID/g)
Kindly answer with a numeric value in %ID/g, unit omitted.

Q: // lookup tissue uptake at 6 h for `O=C(O)CCCC[Te]CCCCCCCCCc1ccc([125I])cc1`
Result: 4.78
